target: stabilized polymers of FtsZ from B. subtilis (Bacillus subtilis, UniProt P17865); construct: made in house; test: Competition assay: displacement of probe (R)-5 from stabilized BsFtsZ-GMPCPP polymers; format: binding; conditions: stabilized polymers of FtsZ from B. subtilis; probe (R)-5; mean ± SEM; read-out: KD
Sequence (P17865 whole entry): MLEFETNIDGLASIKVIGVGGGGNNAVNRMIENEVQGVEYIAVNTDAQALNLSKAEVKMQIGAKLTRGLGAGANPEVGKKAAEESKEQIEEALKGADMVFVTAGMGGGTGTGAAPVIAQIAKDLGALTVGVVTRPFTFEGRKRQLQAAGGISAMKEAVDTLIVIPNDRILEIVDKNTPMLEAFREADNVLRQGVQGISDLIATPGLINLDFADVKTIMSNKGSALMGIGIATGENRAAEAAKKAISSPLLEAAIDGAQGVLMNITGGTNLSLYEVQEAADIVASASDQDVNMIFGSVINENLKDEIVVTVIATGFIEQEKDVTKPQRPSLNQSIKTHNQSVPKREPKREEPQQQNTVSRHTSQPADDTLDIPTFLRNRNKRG
# label = Condition met if Kd < 7 µM else Condition not met

NC(=O)c1c(F)ccc(OCc2cccc(Cl)c2)c1F : Condition met

## Task # strict comparison: is reported Kd < 7 µM? input = NC(=O)c1c(F)ccc(OCc2ccccc2C(F)(F)F)c1F
## Result Condition not met

## Task Threshold test, Kd < 7 µM: NC(=O)c1c(F)ccc(OCc2ccc(C(F)(F)F)cc2)c1F
## Result Condition met

## Task Is Kd strictly under 7 µM for the entry CCC[C@H](COc1ccc(F)c(C(N)=O)c1F)Nc1cccc(C(F)(F)F)c1 [(R)-26] ?
## Result Condition met

## Task Criterion: Kd strictly below 7 µM. Is it met by CCCC(COc1ccc(F)c(C(N)=O)c1F)Nc1cccc(C(F)(F)F)c1 (racemic) ?
## Result Condition met

## Task Does this compound meet the criterion Kd < 7 µM? NC(=O)c1c(F)ccc(OCCNc2cccc(C(F)(F)F)c2)c1F
## Result Condition met

## Task Record NC(=O)c1cccc(OCCCc2cccc(Cl)c2)c1 : is its Kd strictly below 7 µM?
## Result Condition not met

## Task Hello, I'm reviewing records and need to know if Kd of NC(=O)c1c(F)ccc(OCCc2cccc(C(F)(F)F)c2)c1F is below 7 µM. Could you check?
## Result Condition met
